Overview of reported inhibition of growth at 0.08 µM across a group of molecules:
Tested on: Candida albicans
TEST_SUMMARY: Antifungal activity against Candida albicans ATCC 90028 assessed as planktonic growth inhibition at 0.08 uM after 48 hrs by M27-A3 protocol based method relative to control
Assay type: functional
MEASUREMENT_SETUP: ATCC 90028, 48 h, read-out: GI

- MOLECULE: "Clc1ccc(-c2nnn(CCCN3CCCC3c3ccccc3)n2)cc1 (configuration not stated)"
  MEASUREMENT_TARGET: "Candida albicans"
  inhibition of growth at 0.08 µM (%): 99.3
- MOLECULE: "Fc1ccc(C2CCCN2CCCn2nnc(-c3ccccc3Cl)n2)cc1 (configuration not stated)"
  MEASUREMENT_TARGET: "Candida albicans"
  inhibition of growth at 0.08 µM (%): 98.6
- MOLECULE: "Cc1cccc(C2CCCN2CCCn2nnc(-c3ccccc3Cl)n2)c1 (configuration not stated)"
  MEASUREMENT_TARGET: "Candida albicans"
  inhibition of growth at 0.08 µM (%): 99.1
- MOLECULE: "Clc1ccc(-c2nnn(CCCN3CCCC3c3ccc(Cl)cc3)n2)cc1 (configuration not stated)"
  MEASUREMENT_TARGET: "Candida albicans"
  inhibition of growth at 0.08 µM (%): 99.6
- MOLECULE: "Clc1ccc(C2CCCN2CCCn2nnc(-c3ccccc3)n2)cc1 (configuration not stated)"
  MEASUREMENT_TARGET: "Candida albicans"
  inhibition of growth at 0.08 µM (%): 99.4
- MOLECULE: "Clc1ccc(C2CCCN2CCCn2nnc(-c3ccccc3Cl)n2)cc1 (configuration not stated)"
  MEASUREMENT_TARGET: "Candida albicans"
  inhibition of growth at 0.08 µM (%): 98.8
- MOLECULE: "Cc1cccc(C2CCCN2CCCn2nnc(-c3ccc(Cl)cc3)n2)c1 (configuration not stated)"
  MEASUREMENT_TARGET: "Candida albicans"
  inhibition of growth at 0.08 µM (%): 99.3
- MOLECULE: "Clc1ccccc1-c1nnn(CCCN2CCCC2c2ccccc2)n1 (configuration not stated)"
  MEASUREMENT_TARGET: "Candida albicans"
  inhibition of growth at 0.08 µM (%): 98.8
- MOLECULE: "Cc1ccc(-c2nnn(CCCN3CCCC3c3ccc(Cl)cc3)n2)cc1 (configuration not stated)"
  MEASUREMENT_TARGET: "Candida albicans"
  inhibition of growth at 0.08 µM (%): 99.4
- MOLECULE: "Cc1ccc(C2CCCN2CCCn2nnc(-c3ccccc3Cl)n2)cc1 (configuration not stated)"
  MEASUREMENT_TARGET: "Candida albicans"
  inhibition of growth at 0.08 µM (%): 98.8
- MOLECULE: "Cc1ccc(C2CCCN2CCCn2nnc(-c3ccc(Cl)cc3)n2)cc1 (configuration not stated)"
  MEASUREMENT_TARGET: "Candida albicans"
  inhibition of growth at 0.08 µM (%): 99.2
- MOLECULE: "Fc1ccc(C2CCCN2CCCn2nnc(-c3ccc(Cl)cc3)n2)cc1 (configuration not stated)"
  MEASUREMENT_TARGET: "Candida albicans"
  inhibition of growth at 0.08 µM (%): 99.4

====

TEST_SUMMARY: Toxicity in Galleria mellonella larvae assessed as survival rate at 46.05 uM measured after 18 hrs (reference value: 100%)
MEASUREMENT_LABEL: survival at 18 h, 46.05 µM (%)

- COMPOUND: "Cc1cccc(C2CCCN2CCCn2nnc(-c3ccccc3)n2)c1 (stereo unspecified)"
  REPORTED: 100

====

TEST_SUMMARY: Toxicity in Galleria mellonella larvae assessed as survival rate at 41.47 uM measured after 48 hrs (reference value: 100%)
MEASUREMENT_LABEL: survival at 48 h, 41.47 µM (%)

- MOLECULE: "Fc1ccc(C2CCCN2CCCn2nnc(-c3ccc(Cl)cc3)n2)cc1 (stereo unspecified)"
  REPORTED: 100

====

TEST_SUMMARY: Toxicity in Galleria mellonella larvae assessed as survival rate at 47.9 uM measured after 120 hrs (reference value: 100%)

- COMPOUND: "c1ccc(-c2nnn(CCCN3CCCC3c3ccccc3)n2)cc1 (stereo unspecified)"
  survival at 120 h, 47.9 µM / %: 97

====

TEST_SUMMARY: Toxicity in Galleria mellonella larvae assessed as survival rate at 41.47 uM measured after 18 hrs (reference value: 100%)

- COMPOUND: "Fc1ccc(C2CCCN2CCCn2nnc(-c3ccc(Cl)cc3)n2)cc1 (stereo unspecified)"
  UNIT_NAME: "%"
  survival at 18 h, 41.47 µM: 100

====

Overview of reported inhibition of growth at 0.33 µM across a group of molecules:
Test system: Candida albicans
TEST_SUMMARY: Antifungal activity against Candida albicans ATCC 90028 assessed as planktonic growth inhibition at 0.33 uM after 48 hrs by M27-A3 protocol based method relative to control
Format: functional
MEASUREMENT_SETUP: ATCC 90028, 48 h, read-out: GI

- MOLECULE: "Cc1cccc(C2CCCN2CCCn2nnc(-c3ccccc3Cl)n2)c1 (stereo not given)"
  inhibition of growth at 0.33 µM [%]: 99.2
- MOLECULE: "Cc1ccc(C2CCCN2CCCn2nnc(-c3ccc(Cl)cc3)n2)cc1 (stereo not given)"
  inhibition of growth at 0.33 µM [%]: 99.3
- MOLECULE: "Cc1ccc(-c2nnn(CCCN3CCCC3c3ccc(Cl)cc3)n2)cc1 (stereo not given)"
  inhibition of growth at 0.33 µM [%]: 99.2
- MOLECULE: "Cc1cccc(C2CCCN2CCCn2nnc(-c3ccc(Cl)cc3)n2)c1 (stereo not given)"
  inhibition of growth at 0.33 µM [%]: 99.3
- MOLECULE: "Cc1ccc(C2CCCN2CCCn2nnc(-c3ccccc3Cl)n2)cc1 (stereo not given)"
  inhibition of growth at 0.33 µM [%]: 99.2

====

Tested on: Candida albicans
TEST_SUMMARY: Antifungal activity against Candida albicans ATCC 90028 assessed as planktonic growth inhibition at 0.34 uM after 48 hrs by M27-A3 protocol based method relative to control
Type: functional
MEASUREMENT_SETUP: ATCC 90028, 48 h, read-out: GI
Overview of reported inhibition of growth at 0.34 µM across a group of molecules:

- MOLECULE: "Clc1ccc(-c2nnn(CCCN3CCCC3c3ccccc3)n2)cc1 (centres undefined)"
  inhibition of growth at 0.34 µM / %: 99.3
- MOLECULE: "Cc1ccc(-c2nnn(CCCN3CCCC3c3ccc(F)cc3)n2)cc1 (centres undefined)"
  inhibition of growth at 0.34 µM / %: 99.2
- MOLECULE: "Clc1ccccc1-c1nnn(CCCN2CCCC2c2ccccc2)n1 (centres undefined)"
  inhibition of growth at 0.34 µM / %: 99
- MOLECULE: "Clc1ccc(C2CCCN2CCCn2nnc(-c3ccccc3)n2)cc1 (centres undefined)"
  inhibition of growth at 0.34 µM / %: 99.4

====

System: Candida albicans
TEST_SUMMARY: Antifungal activity against Candida albicans ATCC 90028 assessed as planktonic growth inhibition at 5.24 uM after 48 hrs by M27-A3 protocol based method relative to control
Type: functional
MEASUREMENT_SETUP: ATCC 90028, 48 h, read-out: GI
Overview of reported inhibition of growth at 5.24 µM across a group of compounds:
MEASUREMENT_LABEL: inhibition of growth at 5.24 µM

- COMPOUND: "Cc1ccc(C2CCCN2CCCn2nnc(-c3ccc(Cl)cc3)n2)cc1 (stereo not given)"
  REPORTED: "99.4%"
- COMPOUND: "Cc1cccc(C2CCCN2CCCn2nnc(-c3ccccc3Cl)n2)c1 (stereo not given)"
  REPORTED: "99.4%"
- COMPOUND: "Cc1ccc(-c2nnn(CCCN3CCCC3c3ccc(Cl)cc3)n2)cc1 (stereo not given)"
  REPORTED: "99%"
- COMPOUND: "Cc1ccc(C2CCCN2CCCn2nnc(-c3ccccc3Cl)n2)cc1 (stereo not given)"
  REPORTED: "99.4%"
- COMPOUND: "Cc1cccc(C2CCCN2CCCn2nnc(-c3ccc(Cl)cc3)n2)c1 (stereo not given)"
  REPORTED: "99.3%"

====

Tested on: Candida albicans
TEST_SUMMARY: Antifungal activity against Candida albicans ATCC 90028 assessed as planktonic growth inhibition at 10.47 uM after 48 hrs by M27-A3 protocol based method relative to control
Assay type: functional
MEASUREMENT_SETUP: ATCC 90028, 48 h, read-out: GI
Overview of reported inhibition of growth at 10.47 µM across a group of molecules:

- MOLECULE: "Cc1cccc(C2CCCN2CCCn2nnc(-c3ccccc3Cl)n2)c1 (stereo not given)"
  UNIT_NAME: "%"
  inhibition of growth at 10.47 µM: 99.6
- MOLECULE: "Cc1cccc(C2CCCN2CCCn2nnc(-c3ccc(Cl)cc3)n2)c1 (stereo not given)"
  UNIT_NAME: "%"
  inhibition of growth at 10.47 µM: 98.9
- MOLECULE: "Cc1ccc(C2CCCN2CCCn2nnc(-c3ccc(Cl)cc3)n2)cc1 (stereo not given)"
  UNIT_NAME: "%"
  inhibition of growth at 10.47 µM: 99.4
- MOLECULE: "Cc1ccc(-c2nnn(CCCN3CCCC3c3ccc(Cl)cc3)n2)cc1 (stereo not given)"
  UNIT_NAME: "%"
  inhibition of growth at 10.47 µM: 99.4
- MOLECULE: "Cc1ccc(C2CCCN2CCCn2nnc(-c3ccccc3Cl)n2)cc1 (stereo not given)"
  UNIT_NAME: "%"
  inhibition of growth at 10.47 µM: 99.5

Data credit: ChEMBL document CHEMBL4411303
